These entries and their values trace back to PubChem BioAssay.

- assay_details: JC-1 mitochondrial signal, unstimulated MM1S myeloma – cell-based, JC-1 fluorescence, 24 h, 100 nL compound, profiling panel (AID 1170); also: test concentration not given here
- reported_conditions: MM1S mitochondrial potential, higher = more signal
Kindly state z-score for each of the entries shown.
The answer should be a number; do not append a unit.

stdin: So what does the record say about z-score for `COc1ccc(CCNC(=O)[C@@]2(Cc3ccccc3I)c3ccccc3C(=O)N(C3CCCCC3)[C@H]2c2ccc(CO)cc2)cc1` ?
stdout: -1.17

stdin: So what does the record say about z-score for `CN(C)C(=O)[C@@]1(Cc2ccccc2)N=C(c2ccc(OCCCO)cc2)O[C@H]1c1ccccc1` ?
stdout: -0.303

stdin: So what does the record say about z-score for `O=C(c1ccccc1)N1C(=O)[C@]2(Cc3ccccc31)N=C(c1ccc(OCCCO)cc1)O[C@@H]2c1ccccc1` ?
stdout: -2.17

stdin: So what does the record say about z-score for `C#CCN(Cc1ccccc1Br)[C@H](/C=C/c1ccccc1)[C@@H](O)Cc1ccccc1` ?
stdout: 0.42

stdin: So what does the record say about z-score for `C=CCN1Cc2ccccc2[C@@H]2OC(c3ccc(OCCCO)cc3)=N[C@]2(CC=C)C1=O` ?
stdout: 0.278

stdin: So what does the record say about z-score for `COCC(=C=CC[C@H](O)c1ccc(CO)o1)CCO` ?
stdout: 0.363

stdin: So what does the record say about z-score for `C=CCN1C(=O)[C@]2(CCC(=O)OC(C)(C)C)N=C(c3ccc(OCCCO)cc3)O[C@@H]2c2ccccc21` ?
stdout: -2.81

stdin: So what does the record say about z-score for `CCCN1C(=O)[C@@]2(Cc3ccccc31)N=C(c1ccc(OCCCO)cc1)O[C@H]2c1ccccc1` ?
stdout: -0.502

stdin: So what does the record say about z-score for `[N-]=[N+]=Nc1ccccc1[C@@H]1OC(c2ccc(OCCCO)cc2)=N[C@]1(Cc1ccccc1)C(=O)O` ?
stdout: -0.883

stdin: So what does the record say about z-score for `COc1ccc(C#Cc2ccc3c(c2)[C@]2(C(=O)N3)[C@H](c3ccc(OCCO)cc3)N3[C@H](c4ccccc4)[C@H](c4ccccc4)OC(=O)[C@H]3[C@@H]2C(=O)NC[C@H](O)c2ccccc2)cc1` ?
stdout: -1.4

stdin: So what does the record say about z-score for `COc1ccc([Si](C)(C)[C@@H]2[C@@H](CCO)O[C@]3(C(=O)N(Cc4cccc(NC(=O)[C@H](C)O)c4)c4ccccc43)[C@H]2C)cc1` ?
stdout: -2.24

stdin: So what does the record say about z-score for `COC(=O)[C@@]1(Cc2ccc(F)cc2)[C@H]2c3cc(C(=O)N(C)C)n(Cc4ccc(OC(F)(F)F)cc4)c3C[C@H]2CN1C(=O)c1ccccc1` ?
stdout: -0.276

stdin: So what does the record say about z-score for `CCOC(=O)C[C@H]1[C@H](OC(=O)c2cc3ccccc3oc2=O)[C@@H](NC(=O)c2ccccc2)c2cc(OCCCO)ccc2N1C(=O)c1ccccc1` ?
stdout: 0.185

stdin: So what does the record say about z-score for `COc1ccccc1CN1C(=O)c2ccccc2[C@](Cc2ccccc2I)(C(=O)O)[C@@H]1c1ccc(CO)cc1` ?
stdout: -0.177

stdin: So what does the record say about z-score for `O=C(O)[C@@H]1C[C@@H]2C(=O)N3CCC[C@H]3C(=O)N2[C@@H]1c1ccc(O)cc1` ?
stdout: -1.34

stdin: So what does the record say about z-score for CC(C)C(O)C1C=CC2C(=O)N(c3ccccc3)C(=O)C2N1Nc1ccccc1 (stereo unspecified) ?
stdout: -1.35
